So I've got a bunch of compounds here, and I need their TGI values.
tested on: M19-MEL melanoma; experiment: NCI tumour cell line growth inhibition, 48 h

Answered examples (5):
compound=O=C(NCCO)c1ccc([N+](=O)[O-])cc1 observed="> 100 µM"
compound="CCCC(C)n1c(C)nc2c1C(=O)c1ccccc1C2=O (configuration not stated)" observed="29.1 µM"
compound=CCOc1ccc2c(c1)[n+]([O-])c(-c1ccc(Br)cc1)c(N)[n+]2[O-] observed="> 100 µM"
compound="O=C(CC1(O)C(=O)Nc2ccc(Br)cc21)c1ccc(Cl)cc1Cl (configuration not stated)" observed="29.1 µM"
compound=O=C(CCC(=O)Nc1ccc(Cl)c(Cl)c1)CC(=O)c1ccc(F)cc1 observed="> 100 µM"

Field: TGI. Fill in for each record below.
1. CC1(C)O[C@@H](CCl)C[C@H](C#N)O1
2. O=[N+]([O-])c1ccc(-c2noc(-c3ccc(Cl)cc3)c2C2=NCCN2)cc1

## Output
1. > 100 µM
2. > 100 µM
